Molecular target: CDK9-CYCLIN T1 (Homo sapiens, UniProt P50750)
Sequence (P50750 whole entry): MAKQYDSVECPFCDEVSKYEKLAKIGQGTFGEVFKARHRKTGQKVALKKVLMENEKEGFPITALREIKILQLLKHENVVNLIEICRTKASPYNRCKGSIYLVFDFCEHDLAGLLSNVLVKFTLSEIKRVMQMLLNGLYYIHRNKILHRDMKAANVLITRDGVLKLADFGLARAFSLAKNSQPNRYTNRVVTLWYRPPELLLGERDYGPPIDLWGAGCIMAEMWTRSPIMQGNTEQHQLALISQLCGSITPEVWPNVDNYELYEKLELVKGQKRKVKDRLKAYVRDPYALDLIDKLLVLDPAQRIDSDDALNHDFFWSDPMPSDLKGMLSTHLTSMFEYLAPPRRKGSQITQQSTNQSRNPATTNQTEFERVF
Sequence (O60563 whole entry partner): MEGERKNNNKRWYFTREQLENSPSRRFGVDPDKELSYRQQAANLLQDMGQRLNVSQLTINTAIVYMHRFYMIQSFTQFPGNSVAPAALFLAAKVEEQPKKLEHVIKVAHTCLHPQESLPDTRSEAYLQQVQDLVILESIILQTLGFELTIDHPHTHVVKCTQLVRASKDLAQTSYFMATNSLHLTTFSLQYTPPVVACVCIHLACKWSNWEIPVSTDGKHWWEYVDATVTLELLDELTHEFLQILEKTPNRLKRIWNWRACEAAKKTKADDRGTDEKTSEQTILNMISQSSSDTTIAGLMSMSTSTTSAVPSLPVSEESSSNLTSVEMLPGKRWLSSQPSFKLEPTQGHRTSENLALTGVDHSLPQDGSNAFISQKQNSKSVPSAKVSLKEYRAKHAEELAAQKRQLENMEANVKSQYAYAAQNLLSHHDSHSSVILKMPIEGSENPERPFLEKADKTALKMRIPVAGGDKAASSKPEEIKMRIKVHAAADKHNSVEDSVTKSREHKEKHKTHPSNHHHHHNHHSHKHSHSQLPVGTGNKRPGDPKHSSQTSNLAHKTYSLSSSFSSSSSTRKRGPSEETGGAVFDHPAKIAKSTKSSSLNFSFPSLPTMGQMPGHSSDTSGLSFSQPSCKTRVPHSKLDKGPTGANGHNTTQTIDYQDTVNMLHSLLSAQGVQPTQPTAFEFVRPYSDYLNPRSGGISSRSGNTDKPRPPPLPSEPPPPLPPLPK
Assay: CDK protein kinase inhibition by ADP-Glo assay, CDK9-CYCLIN T1
Assay type: biochemical
Conditions: ADP-Glo, 1000 μM ATP; Table 17; read-out: CDK9-CYCLINT1, IC50
ENDPOINT NAME: IC50

Some entries whose results are on file:
C[C@H]1CC23CC(C2)(C3)NC(=O)O[C@@H]2CC[C@@H](C2)c2cc([nH]n2)Nc2ccnc(c2)O1 [Compound 102] = 10 to 50 nM
O=C1NC2(CCCCc3cc(ccn3)Nc3cc(n[nH]3)[C@H]3CC[C@H](C3)O1)CC2 [Compound 116] = 50 to 100 nM
O=C1NC2CC3(C2)CC(C3)Oc2cc(ccn2)Nc2cc(n[nH]2)[C@H]2CC[C@H](C2)O1 [Compound 128] = 10 to 50 nM

In plain terms, O=C1NC23CC(C/C=C/c4cc(ccn4)Nc4cc(n[nH]4)[C@H]4CC[C@H](C4)O1)(C2)C3 [Compound 107] has a documented IC50 of ≤ 10 nM

In plain terms, C[C@@H]1CC23CC(C2)(C3)NC(=O)O[C@@H]2CC[C@@H](C2)c2cc([nH]n2)Nc2ccnc(c2)O1 [Compound 100] has a documented IC50 of 10 to 50 nM
